From: PubChem BioAssay (NCI)

System: CCRF-CEM leukemia
procedure.details: NCI-60 one-dose screen, 48 h (100 = growth as untreated, 0 = no growth, -100 = all killed)
test.conditions: 10 µM unless noted
The panel holds about 83,000 compounds, 20% with a hit somewhere; the sample as a whole holds those more often.

compound	value.unit	growth
CCC[C@H](N[C@@H](C)C(=O)N1[C@H](C(=O)O)C[C@@H]2CCCC[C@@H]21)C(=O)OCC	%	105
COc1ccc2c3c(c(OCCCN(C)C)nc2c1)-c1ccc(Cl)cc1C3=O	%	-39.7
C=C(C[C@@](O)(C(=O)Oc1ccccc1)C(=O)C1CCCCC1)c1ccccc1	%	95.4
CC12CCCCC1C(C(N)=O)C(=O)O2 (stereo unspecified)	%	102
CC/C(=C\c1ccc(N(C)C)cc1)c1nc2ccccc2c(=O)[nH]1	%	110
COc1ccc(/C=C2\NC(=S)NC2=O)cc1	%	105
Nc1ccccc1-c1ccc([N+](=O)[O-])cc1	%	24.6
COc1cc2c(cc1OC)C1CCN3C(=O)CCC3N1CC2 (stereo unspecified)	%	102
Cn1[nH]cc(/C=N/C(N)=O)c1=O	%	94.8
CSC1=Nc2c(c(C)c(-c3ccccc3)n2CCCN2CCCCC2)C2=NC(=O)C[C@H](C)N12	%	20.7
CCN(CC)c1ccc(CN(CC(=O)c2ccc(Cl)c(Cl)c2)Cc2ccccc2)cc1	%	97.8
